Target: T1, hVISTA-ECD 6-His tag (human, UniProt Q9H7M9 33-193)
T1 construct: also called monovalent hVISTA-ECD; human VISTA
T1 sequence (Q9H7M9 other isoform, or with tags, fused parts or gaps limits assumed): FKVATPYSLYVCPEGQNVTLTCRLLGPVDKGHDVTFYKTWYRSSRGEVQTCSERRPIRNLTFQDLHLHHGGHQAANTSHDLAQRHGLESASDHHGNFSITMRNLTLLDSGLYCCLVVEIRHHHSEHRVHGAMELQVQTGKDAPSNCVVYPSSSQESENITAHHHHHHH
Assay: SPR 37 C, Ab on Protein A, pH 6.0
Documented kon across a set of binders
observationType: kon (M⁻¹ s⁻¹)

{"binder": "P1-077847 (P1-068744 H50I E59Y) (antibody, V domains shown) VH: QVQLVESGGGVVQPGRSLRLSCAASGFTFSEYAMHWVRQAPGKGLEWVAIIWYDGSNKYYADSVKGRFTISRDNSKNTLYLQMNSLRAEDTAVYYCARDSGFYESYYFDEWGQGTLVTVSS VL: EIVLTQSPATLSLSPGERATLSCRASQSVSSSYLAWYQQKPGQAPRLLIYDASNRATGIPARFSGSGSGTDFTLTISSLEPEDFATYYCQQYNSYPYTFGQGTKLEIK", "observationType": "kon", "measuredNumber": "1.2e+06"}
{"binder": "P1-077851 (P1-068744 E100S E102Y) (antibody, V domains shown) VH: QVQLVESGGGVVQPGRSLRLSCAASGFTFSEYAMHWVRQAPGKGLEWVAHIWYDGSNKYEADSVKGRFTISRDNSKNTLYLQMNSLRAEDTAVYYCARDSGFYSSYYFDYWGQGTLVTVSS VL: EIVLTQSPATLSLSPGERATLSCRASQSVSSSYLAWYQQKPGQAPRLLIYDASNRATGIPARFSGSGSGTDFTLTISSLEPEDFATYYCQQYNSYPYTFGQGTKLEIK", "observationType": "kon", "measuredNumber": 380000}
{"binder": "P1-077841 (P1-068744 E100S) (antibody, V domains shown) VH: QVQLVESGGGVVQPGRSLRLSCAASGFTFSEYAMHWVRQAPGKGLEWVAHIWYDGSNKYEADSVKGRFTISRDNSKNTLYLQMNSLRAEDTAVYYCARDSGFYSSYYFDEWGQGTLVTVSS VL: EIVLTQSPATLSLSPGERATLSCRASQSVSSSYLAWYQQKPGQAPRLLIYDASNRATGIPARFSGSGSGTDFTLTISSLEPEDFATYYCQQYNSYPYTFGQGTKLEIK", "observationType": "kon", "measuredNumber": 520000}
